// data source = the supplement of paper PMC11061612

System: BICR78 (Oral Cavity Carcinoma)
method: combination Emax (second highest fraction inhibited in the dose matrix, 72 h); higher = more inhibition; extreme values may be limits of the assay
Entries and their combination Emax
Could you keep your reply to the number by itself?

Solved cases (4 shown):
| molecule | combination Emax |
| --- | --- |
| O=C(c1cc(Cc2n[nH]c(=O)c3ccccc23)ccc1F)N1CCN(C(=O)C2CC2)CC1 [Olaparib] + CC1(C)CCC(CN2CCN(c3ccc(C(=O)NS(=O)(=O)c4ccc(NCC5CCOCC5)c([N+](=O)[O-])c4)c(Oc4cnc5[nH]ccc5c4)c3)CC2)=C(c2ccc(Cl)cc2)C1 [Venetoclax] (first compound max 10 µM, 7x7, partner max 1 µM) | 0.108 |
| CN(CCO)CC[C@H](CSc1ccccc1)Nc1ccc(S(=O)(=O)NC(=O)c2ccc(N3CCC([C@@H](O)c4ccccc4-c4ccc(Cl)cc4)CC3)cc2)cc1S(=O)(=O)C(F)(F)F [AZD4320] + C=CCn1c(=O)c2cnc(Nc3ccc(N4CCN(C)CC4)cc3)nc2n1-c1cccc(C(C)(C)O)n1 [AZD1775] (first compound max 1 µM, partner max 1 µM) | 0.304 |
| C[C@@H](Oc1cc(-c2cnn(C3CCNCC3)c2)cnc1N)c1c(Cl)ccc(F)c1Cl [Crizotinib] + Cn1cnc2c(F)c(Nc3ccc(Br)cc3Cl)c(C(=O)NOCCO)cc21 [Selumetinib] (first compound max 10 µM, 7x7, partner max 10 µM) | 0.456 |
| Cc1nc(Nc2ncc(C(=O)Nc3c(C)cccc3Cl)s2)cc(N2CCN(CCO)CC2)n1 [Dasatinib] + CC(=O)Nc1cccc(-n2c(=O)n(C3CC3)c(=O)c3c(Nc4ccc(I)cc4F)n(C)c(=O)c(C)c32)c1 [Trametinib] (first compound max 2 µM, 7x7, partner max 1 µM) | 0.435 |

Now for a further molecule.
Query :: For the molecule N#Cc1cnc(Nc2cc(NC[C@H]3CNCCO3)c(C(F)(F)F)cn2)cn1 [SRA737] + CCc1c2c(nc3ccc(O)cc13)-c1cc3c(c(=O)n1C2)COC(=O)[C@]3(O)CC [SN-38] (first compound max 10 µM, 7x7, partner max 0.3 µM) , what combination Emax is on record?
Result :: 0.854

---

System: P31-FUJ (Acute Myeloid Leukemia)
method: Bliss excess, mean over the matrix (fraction); higher = more synergy
Entries and their Bliss excess

| molecule | target-under-test | recorded-result |
| --- | --- | --- |
| Cc1nc(-c2cn3c(n2)-c2ccc(-c4cnn(C(C)(C)C(N)=O)c4)cc2OCC3)n(C(C)C)n1 [Taselisib] + O=C(Nc1ccc2[nH]nc(-c3ccncc3)c2c1)[C@@H]1CCN(CC(=O)N2CCN(c3ccc(-c4ncccn4)cc3)CC2)C1 [SCH772984] (first compound max 10 µM, 7x7, partner max 5 µM) | P31-FUJ (Acute Myeloid Leukemia) | 0.0477 |
| Cc1cc2ncnn2cc1Nc1ncc2c(n1)n(C1CCOCC1)c(=O)n2C [AZD7648] + CN(C)CCCOc1ccc(-c2ccc3ncc4c(c3c2)n(C2CCOCC2)c(=O)n4C)cn1 [AZD0156] (first compound max 10 µM, 7x7, partner max 1 µM) | P31-FUJ (Acute Myeloid Leukemia) | 0.0381 |
| C[C@@H]1COCCN1c1cc(C2([S@](C)(=N)=O)CC2)nc(-c2ccnc3[nH]ccc23)n1 [AZD6738] + Nc1ccn([C@@H]2O[C@H](CO)[C@@H](O)C2(F)F)c(=O)n1 [Gemcitabine] (first compound max 10 µM, 7x7, partner max 0.3 µM) | P31-FUJ (Acute Myeloid Leukemia) | 0.0545 |

Now for a further molecule.
Query :: For the molecule CC1(C)CCC(CN2CCN(c3ccc(C(=O)NS(=O)(=O)c4ccc(NCC5CCOCC5)c([N+](=O)[O-])c4)c(Oc4cnc5[nH]ccc5c4)c3)CC2)=C(c2ccc(Cl)cc2)C1 [Venetoclax] + CCN(CCO)CCCOc1ccc2c(Nc3cc(CC(=O)Nc4cccc(F)c4)[nH]n3)ncnc2c1 [AZD2811] (first compound max 1 µM, 7x7, partner max 1 µM) , what Bliss excess is on record?
Result :: -0.0512

---

System: A172 (Glioblastoma)
method: Bliss excess, mean over the matrix (fraction); higher = more synergy
property: Bliss excess
Could you keep your reply to the number by itself?

| compound | target-under-test | Bliss excess |
| --- | --- | --- |
| CC1(C)CCC(CN2CCN(c3ccc(C(=O)NS(=O)(=O)c4ccc(NCC5CCOCC5)c([N+](=O)[O-])c4)c(Oc4cnc5[nH]ccc5c4)c3)CC2)=C(c2ccc(Cl)cc2)C1 [Venetoclax] + C1CN(CCC1(C(=O)N[C@@H](CCO)C2=CC=C(C=C2)Cl)N)C3=NC=NC4=C3C=CN4 [Capivasertib] (first compound max 1 µM, 7x7, partner max 3 µM) | A172 (Glioblastoma) | -0.0461 |
| NC1(C(=O)N[C@@H](CCO)c2ccc(Cl)cc2)CCN(c2ncnc3[nH]ccc23)CC1 [Capivasertib] + CC(=O)c1c(C)c2cnc(Nc3ccc(N4CCNCC4)cn3)nc2n(C2CCCC2)c1=O [Palbociclib] (first compound max 10 µM, 7x7, partner max 10 µM) | A172 (Glioblastoma) | -0.0183 |
| COc1nnc2ccc(N3CCC(c4ccc(OCCN5CCN(C)C(=O)[C@H]5C)cc4)CC3)nn12 [AZD5153] + Cc1c2c(nn1C)CSCc1cc(n(C)n1)CSc1cc(c3ccccc3c1)OCCCc1c(C(=O)O)n(C)c3c-2c(Cl)ccc13 [AZD5991] (first compound max 1 µM, 7x7, partner max 1 µM) | A172 (Glioblastoma) | -0.0698 |
| CN(C)CCCOc1ccc(-c2ccc3ncc4c(c3c2)n(C2CCOCC2)c(=O)n4C)cn1 [AZD0156] + C=CCn1c(=O)c2cnc(Nc3ccc(N4CCN(C)CC4)cc3)nc2n1-c1cccc(C(C)(C)O)n1 [AZD1775] (first compound max 1 µM, partner max 1 µM) | A172 (Glioblastoma) | -0.0431 |
| Cn1cnc2c(F)c(Nc3ccc(Br)cc3Cl)c(C(=O)NOCCO)cc21 [Selumetinib] + CCN(CCO)CCCOc1ccc2c(Nc3cc(CC(=O)Nc4cccc(F)c4)[nH]n3)ncnc2c1 [AZD2811] (first compound max 10 µM, 7x7, partner max 1 µM) | A172 (Glioblastoma) | -0.0731 |
| Cc1c2c(nn1C)CSCc1cc(n(C)n1)CSc1cc(c3ccccc3c1)OCCCc1c(C(=O)O)n(C)c3c-2c(Cl)ccc13 [AZD5991] + C[C@@H](Nc1cc(F)cc(F)c1)c1cc(C(=O)N(C)C)cc2c(=O)cc(N3CCOCC3)oc12 [AZD8186] (first compound max 1 µM, 7x7, partner max 3 µM) | A172 (Glioblastoma) | -0.004 |

Query :: For the compound COc1cc2ncnc(Nc3ccc(F)c(Cl)c3)c2cc1OCCCN1CCOCC1 [Gefitinib] + CC(C)n1c(=O)n(C)c2cnc3cc(F)c(-c4ccc(OCCCN5CCCCC5)nc4)cc3c21 [AZD1390] (first compound max 10 µM, 7x7, partner max 0.3 µM) , what Bliss excess is on record?
Result :: -0.0554

---

Entries and their combination Emax
Test system: EW-22 (Ewing's Sarcoma)
method: combination Emax (second highest fraction inhibited in the dose matrix, 72 h); higher = more inhibition; extreme values may be limits of the assay
Could you keep your reply to the number by itself?

| compound | target-under-test | combination Emax |
| --- | --- | --- |
| C[C@@H](c1ccc2nccn2c1)n1nnc2ncc(-c3cnn(C)c3)nc21 [Savolitinib] + Cc1c2c(nn1C)CSCc1cc(n(C)n1)CSc1cc(c3ccccc3c1)OCCCc1c(C(=O)O)n(C)c3c-2c(Cl)ccc13 [AZD5991] (first compound max 1 µM, 7x7, partner max 1 µM) | EW-22 (Ewing's Sarcoma) | 0.271 |

Query :: For the compound C[C@@H]1COCCN1c1cc(C2([S@](C)(=N)=O)CC2)nc(-c2ccnc3[nH]ccc23)n1 [AZD6738] + O=C(c1cc(Cc2n[nH]c(=O)c3ccccc23)ccc1F)N1CCN(C(=O)C2CC2)CC1 [Olaparib] (first compound max 10 µM, 7x7, partner max 10 µM) , what combination Emax is on record?
Result :: 0.942

---

Tested on: PA-TU-8902 (Pancreatic Carcinoma)
method: combination Emax (second highest fraction inhibited in the dose matrix, 72 h); higher = more inhibition; extreme values may be limits of the assay
property: combination Emax

Solved cases (3 shown):
| molecule | combination Emax |
| --- | --- |
| CCc1c2c(nc3ccc(O)cc13)-c1cc3c(c(=O)n1C2)COC(=O)[C@]3(O)CC [SN-38] + CN(C)CCCOc1ccc(-c2ccc3ncc4c(c3c2)n(C2CCOCC2)c(=O)n4C)cn1 [AZD0156] (first compound max 0.3 µM, 7x7, partner max 1 µM) | 0.413 |
| CN(C)CCCOc1ccc(-c2ccc3ncc4c(c3c2)n(C2CCOCC2)c(=O)n4C)cn1 [AZD0156] + C=CCn1c(=O)c2cnc(Nc3ccc(N4CCN(C)CC4)cc3)nc2n1-c1cccc(C(C)(C)O)n1 [AZD1775] (first compound max 1 µM, partner max 1 µM) | 0.252 |
| NC1(C(=O)N[C@@H](CCO)c2ccc(Cl)cc2)CCN(c2ncnc3[nH]ccc23)CC1 [Capivasertib] + C[C@@H]1COCCN1C2=NC(=NC(=C2)C3(CC3)[S@](=N)(=O)C)C4=C5C=CNC5=NC=C4 [AZD6738] (first compound max 10 µM, 7x7, partner max 10 µM) | 0.544 |

Query :: For the molecule Cc1c2c(nn1C)CSCc1cc(n(C)n1)CSc1cc(c3ccccc3c1)OCCCc1c(C(=O)O)n(C)c3c-2c(Cl)ccc13 [AZD5991] + C=CCn1c(=O)c2cnc(Nc3ccc(N4CCN(C)CC4)cc3)nc2n1-c1cccc(C(C)(C)O)n1 [AZD1775] (first compound max 1 µM, partner max 1 µM) , what combination Emax is on record?
Result :: 0.31
